# PROCEDURE TEXT: Experimental lipophilicity by RP-TLC (RM0, logPTLC, hydrophobic index)
# APPLIED CONDITIONS: φ0 = −RM0/b
MEASURED PROPERTY: hydrophobic index (φ0)
Just the number, please, no unit after it.

Field: example entries. Status: answers known.
compound="C=C(C)[C@@H]1CC[C@]2(COC(=O)c3cn(CCCOC4=C(Cl)C(=O)c5cccnc5C4=O)nn3)CC[C@]3(C)C(CCC4[C@@]5(C)CC[C@H](OC(=O)CC)C(C)(C)C5CC[C@]43C)C12 (stereo partly drawn)" test_value=87.00
compound="C=C(C)[C@@H]1CC[C@]2(COC(=O)c3cn(CCCOC4=C(Cl)C(=O)c5ccc(C)nc5C4=O)nn3)CC[C@]3(C)C(CCC4[C@@]5(C)CC[C@H](O)C(C)(C)C5CC[C@]43C)C12 (stereo partly drawn)" test_value=82.43

Proceeding to the next compound to report its hydrophobic index (φ0).
# hydrophobic index (φ0) lookup, item C=C(C)[C@@H]1CC[C@]2(COC(=O)c3cn(CCCOC4=C(Cl)C(=O)c5cccnc5C4=O)nn3)CC[C@]3(C)C(CCC4[C@@]5(C)CCC(=O)C(C)(C)C5CC[C@]43C)C12 (stereo partly drawn)
83.14
